Measured C-term flag, listed per entry.
target.entity: T1, B3GNT2 (Homo sapiens, UniProt Q9NY97)
T1 construct: The respective ORFs of candidate genes [CD274 (NM_014143), MCL1 (NM_021960), JUNB (NM_002229), and B3GNT2 (NM_006577)] were synthesized; expressed in transfected cells; host or cells: A375 melanoma cells (lentiviral ORF overexpression)
T1 sequence (Q9NY97 1-397): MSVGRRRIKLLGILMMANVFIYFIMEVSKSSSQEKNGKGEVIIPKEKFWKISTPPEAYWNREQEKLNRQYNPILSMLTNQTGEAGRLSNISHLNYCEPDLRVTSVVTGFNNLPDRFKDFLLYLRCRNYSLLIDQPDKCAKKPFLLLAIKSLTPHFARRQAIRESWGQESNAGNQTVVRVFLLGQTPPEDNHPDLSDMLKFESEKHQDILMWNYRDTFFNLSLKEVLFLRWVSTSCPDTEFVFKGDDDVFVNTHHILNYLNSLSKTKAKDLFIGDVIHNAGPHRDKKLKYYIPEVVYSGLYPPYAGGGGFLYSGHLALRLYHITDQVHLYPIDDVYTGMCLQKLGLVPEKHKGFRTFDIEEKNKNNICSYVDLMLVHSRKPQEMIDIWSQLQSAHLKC
experimental.protocol: Co-IP of FLAG-tagged B3GNT2 followed by mass spectrometry
Format: cell-based
Set-up: unit not given here
condition.context: Co-IP with FLAG antibody, C-terminally FLAG-tagged B3GNT2; mass spectrometry count, unit not given
Answer with the value's number alone.

Use these answered entries as a reference point.
INSERT INTO assay_data (molecule, value) VALUES
  ('HSD17B12 (protein) MESALPAAGFLYWVGAGTVAYLALRISYSLFTALRVWGVGNEAGVGPGLGEWAVVTGSTDGIGKSYAEELAKHGMKVVLISRSKDKLDQVSSEIKEKFKVETRTIAVDFASEDIYDKIKTGLAGLEIGILVNNVGMSYEYPEYFLDVPDLDNVIKKMININILSVCKMTQLVLPGMVERSKGAILNISSGSGMLPVPLLTIYSATKTFVDFFSQCLHEEYRSKGVFVQSVLPYFVATKLAKIRKPTLDKPSPETFVKSAIKTVGLQSRTNGYLIHALMGSIISNLPSWIYLKIVMNMNKSTRAHYLKKTKKN', 10),
  ('DNAJA3 (protein) GVSLTGTKHNPFICTASFHTSAPLAKEDYYQILGVPRNASQKEIKKAYYQLAKKYHPDTNKDDPKAKEKFSQLAEAYEVLSDEVKRKQYDAYGSAGFDPGASGSQHSYWKGGPTVDPEELFRKIFGEFSSSSFGDFQTVFDQPQEYFMELTFNQAAKGVNKEFTVNIMDTCERCNGKGNEPGTKVQHCHYCGGSGMETINTGPFVMRSTCRRCGGRGSIIISPCVVCRGAGQAKQKKRVMIPVPAGVEDGQTVRMPVGKREIFITFRVQKSPVFRRDGADIHSDLFISIAQALLGGTARAQGLYETINVTIPPGTQTDQKIRMGGKGIPRINSYGYGDHYIHIKIRVPKRLTSRQQSLILSYAEDETDVEGTVNGVTLTSSGKRSTGN', 2),
  ('MYL9 (protein) SSKRAKAKTTKKRPQRATSNVFAMFDQSQIQEFKEAFNMIDQNRDGFIDKEDLHDMLASLGKNPTDEYLEGMMSEAPGPINFTMFLTMFGEKLNGTDPEDVIRNAFACFDEEASGFIHEDHLRELLTTMGDRFTDEEVDEMYREAPIDKKGNFNYVEFTRILKHGAKDKDD', 0),
  ('SRSF7 (protein) MSRYGRYGGETKVYVGNLGTGAGKGELERAFSYYGPLRTVWIARNPPGFAFVEFEDPRDAEDAVRGLDGKVICGSRVRVELSTGMPRRSRFDRPPARRPFDPNDRCYECGEKGHYAYDCHRYSRRRRSRSRSRSHSRSRGRRYSRSRSRSRGRRSRSASPRRSRSISLRRSRSASLRRSRSGSIKGSRYFQSPSRSRSRSRSISRPRSSRSKSRSPSPKRSRSPSGSPRRSASPERMD', 0),
  ('CD70 (protein) MPEEGSGCSVRRRPYGCVLRAALVPLVAGLVICLVVCIQRFAQAQQQLPLESLGWDVAELQLNHTGPQQDPRLYWQGGPALGRSFLHGPELDKGQLRIHRDGIYMVHIQVTLAICSSTTASRHHPTTLAVGICSPASRSISLLRLSFHQGCTIASQRLTPLARGDTLCTNLTGTLLPSRNTDETFFGVQWVRP', 2);

[Q] I would be grateful if you could share the reported C-term flag for PRDX2 (protein) ASGNARIGKPAPDFKATAVVDGAFKEVKLSDYKGKYVVLFFYPLDFTFVCPTEIIAFSNRAEDFRKLGCEVLGVSVDSQFTHLAWINTPRKEGGLGPLNIPLLADVTRRLSEDYGVLKTDEGIAYRGLFIIDGKGVLRQITVNDLPVGRSVDEALRLVQAFQYTDEHGEVCPAGWKPGSDTIKPNVDDSKEYFSKHN .
[A] 5

[Q] Query (molecule): PRR4 (protein) QSTDNDVNYEDFTFTIPDVEDSSQRPDQGPQRPPPEGLLPRPPGDSGNQDDGPQQRPPKPGGHHRHPPPPPFQNQQRPPRRGHRQLSLPRFPSVSLQEASSFFQRDRPARHPQEQPLW ; field requested: C-term flag
[A] 0

[Q] Consider the molecule shown here: SLC25A6 (protein) MTEQAISFAKDFLAGGIAAAISKTAVAPIERVKLLLQVQHASKQIAADKQYKGIVDCIVRIPKEQGVLSFWRGNLANVIRYFPTQALNFAFKDKYKQIFLGGVDKHTQFWRYFAGNLASGGAAGATSLCFVYPLDFARTRLAADVGKSGTEREFRGLGDCLVKITKSDGIRGLYQGFSVSVQGIIIYRAAYFGVYDTAKGMLPDPKNTHIVVSWMIAQTVTAVAGVVSYPFDTVRRRMMMQSGRKGADIMYTGTVDCWRKIFRDEGGKAFFKGAWSNVLRGMGGAFVLVLYDELKKVI What is its recorded C-term flag?
[A] 19

[Q] Need C-term flag of HNRNPA1 (protein) SKSESPKEPEQLRKLFIGGLSFETTDESLRSHFEQWGTLTDCVVMRDPNTKRSRGFGFVTYATVEEVDAAMNARPHKVDGRVVEPKRAVSREDSQRPGAHLTVKKIFVGGIKEDTEEHHLRDYFEQYGKIEVIEIMTDRGSGKKRGFAFVTFDDHDSVDKIVIQKYHTVNGHNCEVRKALSKQEMASASSSQRGRSGSGNFGGGRGGGFGGNDNFGRGGNFSGRGGFGGSRGGGGYGGSGDGYNGFGNDGGYGGGGPGYSGGSRGYGSGGQGYGNQGSGYGGSGSYDSYNNGGGGGFGGGSGSNFGGGGSYNDFGNYNNQSSNFGPMKGGNFGGRSSGPYGGGGQYFAKPRNQGGYGGSSSSSSYGSGRRF , thanks.
[A] 9
